# Study System: Neurogenic locus notch homolog protein 2 (Homo sapiens) (UniProt Q04721)
# Sequence (Q04721 whole entry, looked up): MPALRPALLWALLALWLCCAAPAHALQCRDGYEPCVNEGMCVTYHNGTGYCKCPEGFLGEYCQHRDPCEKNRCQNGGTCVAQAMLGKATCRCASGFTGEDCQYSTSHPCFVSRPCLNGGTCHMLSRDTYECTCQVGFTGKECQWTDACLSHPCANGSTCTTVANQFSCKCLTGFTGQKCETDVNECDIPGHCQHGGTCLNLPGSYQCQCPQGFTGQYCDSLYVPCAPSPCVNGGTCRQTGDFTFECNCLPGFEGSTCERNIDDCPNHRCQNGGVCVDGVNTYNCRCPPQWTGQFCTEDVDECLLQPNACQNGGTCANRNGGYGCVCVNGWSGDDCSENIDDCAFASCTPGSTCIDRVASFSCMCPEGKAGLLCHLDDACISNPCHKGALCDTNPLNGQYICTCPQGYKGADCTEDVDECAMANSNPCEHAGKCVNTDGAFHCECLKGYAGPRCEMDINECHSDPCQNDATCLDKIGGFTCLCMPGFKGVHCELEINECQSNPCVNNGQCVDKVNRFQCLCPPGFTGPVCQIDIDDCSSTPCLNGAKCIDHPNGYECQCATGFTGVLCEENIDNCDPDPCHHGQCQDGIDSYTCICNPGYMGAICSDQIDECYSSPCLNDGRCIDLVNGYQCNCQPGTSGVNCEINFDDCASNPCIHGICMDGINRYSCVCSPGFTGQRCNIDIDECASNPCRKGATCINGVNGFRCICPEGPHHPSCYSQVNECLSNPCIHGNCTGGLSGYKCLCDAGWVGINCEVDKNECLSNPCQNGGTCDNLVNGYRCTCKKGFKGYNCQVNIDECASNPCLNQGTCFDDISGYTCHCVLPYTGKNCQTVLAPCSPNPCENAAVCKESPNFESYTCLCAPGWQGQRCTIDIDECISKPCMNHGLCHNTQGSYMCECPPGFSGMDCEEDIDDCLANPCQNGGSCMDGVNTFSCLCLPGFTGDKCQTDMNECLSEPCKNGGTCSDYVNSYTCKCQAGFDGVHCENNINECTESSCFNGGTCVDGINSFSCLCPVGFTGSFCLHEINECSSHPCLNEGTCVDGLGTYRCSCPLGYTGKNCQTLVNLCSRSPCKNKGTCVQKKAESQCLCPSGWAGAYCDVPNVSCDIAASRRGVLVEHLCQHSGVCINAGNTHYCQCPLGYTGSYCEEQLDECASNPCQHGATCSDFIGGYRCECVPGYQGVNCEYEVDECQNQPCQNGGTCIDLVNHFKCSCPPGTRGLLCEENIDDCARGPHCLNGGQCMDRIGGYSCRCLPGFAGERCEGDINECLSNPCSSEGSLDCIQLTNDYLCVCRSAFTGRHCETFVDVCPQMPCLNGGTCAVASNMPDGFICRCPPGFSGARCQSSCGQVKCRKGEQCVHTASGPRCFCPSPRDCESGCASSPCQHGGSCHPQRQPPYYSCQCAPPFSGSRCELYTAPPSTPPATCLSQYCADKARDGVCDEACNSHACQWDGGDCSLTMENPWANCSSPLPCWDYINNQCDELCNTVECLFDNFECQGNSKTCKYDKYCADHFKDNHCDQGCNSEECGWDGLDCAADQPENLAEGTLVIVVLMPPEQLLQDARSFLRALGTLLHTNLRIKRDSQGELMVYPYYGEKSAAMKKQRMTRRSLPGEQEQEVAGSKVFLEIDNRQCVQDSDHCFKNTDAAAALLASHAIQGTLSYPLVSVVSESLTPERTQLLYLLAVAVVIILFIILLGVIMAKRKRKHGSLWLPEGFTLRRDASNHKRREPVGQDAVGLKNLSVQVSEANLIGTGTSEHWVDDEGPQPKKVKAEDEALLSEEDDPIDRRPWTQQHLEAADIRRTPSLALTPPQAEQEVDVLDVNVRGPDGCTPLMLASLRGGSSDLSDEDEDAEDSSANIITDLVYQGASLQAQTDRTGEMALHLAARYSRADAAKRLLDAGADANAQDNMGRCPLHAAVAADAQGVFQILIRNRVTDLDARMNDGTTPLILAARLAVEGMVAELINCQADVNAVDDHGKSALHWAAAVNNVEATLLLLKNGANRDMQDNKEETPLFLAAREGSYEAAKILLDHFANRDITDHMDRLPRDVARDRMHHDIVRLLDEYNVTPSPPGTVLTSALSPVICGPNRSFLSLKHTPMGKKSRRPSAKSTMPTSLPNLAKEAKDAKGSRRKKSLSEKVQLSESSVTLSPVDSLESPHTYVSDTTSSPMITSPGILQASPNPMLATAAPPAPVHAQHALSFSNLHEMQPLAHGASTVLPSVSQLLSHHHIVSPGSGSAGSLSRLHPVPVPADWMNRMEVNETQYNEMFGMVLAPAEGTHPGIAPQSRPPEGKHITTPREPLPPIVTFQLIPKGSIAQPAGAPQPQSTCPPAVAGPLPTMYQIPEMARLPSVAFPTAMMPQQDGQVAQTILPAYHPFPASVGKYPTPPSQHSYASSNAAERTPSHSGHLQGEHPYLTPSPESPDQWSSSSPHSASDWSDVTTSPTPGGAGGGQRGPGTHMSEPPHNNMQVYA
# Assay Protocol: Notch2 binders on small-molecule microarrays, primary screen, biochemical, small-molecule microarray, 635 nm fluorescence, stem cell growth factors (AID 1073)
# Experimental Setup: Notch2 binding, higher = more signal
// values below are reported composite z-score
Please give only the number in your answer, with no unit.

In the examples that follow, each entry is paired with its recorded composite z-score.
compound="COCC1C2CC[C@H]3C(OCc4ccc(OC)cc4)OC[C@]4(C)[C@H]3C2=C(CN4C(=O)OC(C)(C)C)[C@H](C)C1COC (stereo partly drawn)" quantity_kind="composite z-score" recorded_value=1.72
compound="CN1C(=O)C2C=CC(C(O)c3cc(C(F)(F)F)cc(C(F)(F)F)c3)N(Nc3ccccc3)C2C1=O (stereo not drawn)" quantity_kind="composite z-score" recorded_value=0.245
compound=C[C@]1(C(=O)O)c2ccccc2C(=O)N(Cc2ccc(OC(F)(F)F)cc2)[C@H]1c1ccc(CO)cc1 quantity_kind="composite z-score" recorded_value=-0.0052

Next:
Asked: Provide Neurogenic locus notch homolog protein 2 (Homo sapiens) (UniProt Q04721) composite z-score reading for COc1cc(C(O)C2C=CC3C(=O)N(Cc4ccccc4)C(=O)C3N2n2cnnc2)cc(OC)c1OC (stereo not drawn) .
Given back: 1.49

###

# Assay Protocol: small-molecule microarray binders of probe aXIP, primary screen, biochemical, NeuroSMM set, 635/667 nm fluorescence (AID 1119);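 further: probe is the protein aXip251-270 applied at 1 µg/mL to compound-printed slides; binding of probe to printed compounds measured as 667 nm fluorescence plus signal to noise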
# Experimental Setup: higher = more signal, called active from +8 up or from −8 down
Label true (1) when composite Z-score is at or above -0.2; otherwise label false (0).

Look over these answered cases.
smiles_notation=Cc1c(NC(=O)/C(C#N)=C/c2ccccc2Cl)c(=O)n(-c2ccccc2)n1C class_assignment="false (0)"
smiles_notation=COCC(=C=CC[C@@H](O)c1ccc(OCCO)cc1)CCO class_assignment="true (1)"
smiles_notation=C=C(CCCC)C(=O)CC[C@@H](OC(=O)c1cccnc1)c1ccc(OCCO)cc1 class_assignment="true (1)"
smiles_notation=CN1C(=O)[C@@]2(Cc3ccccc3)N=C(c3ccc(OCCCO)cc3)O[C@H]2c2ccccc21 class_assignment="true (1)"
smiles_notation=COc1ccc(C(=O)Nc2cccc(CN3C(=O)[C@]4(O[C@H](CCn5cc([C@H](O)c6ccccc6)nn5)[C@@H]([Si](C)(C)c5ccc(OC)cc5)[C@@H]4C)c4ccccc43)c2)cc1 class_assignment="false (0)"
smiles_notation=COCCCNC(=O)[C@@]1(c2ccc([N+](=O)[O-])cc2)CC(=O)N(C(C)C)[C@@H]1c1ccc(CO)cc1 class_assignment="false (0)"

Asked: Decide: is the reported value of composite Z-score for "CC(C)[Si]1(C(C)C)OCc2cc(-c3ccc(-c4ccc(Cl)c(Cl)c4)o3)nc(CCc3ccccc3)c21" equal to or greater than -0.2?
Given back: true (1)

Asked: Answer whether composite Z-score of "COC(=O)[C@@]1(Cc2ccccc2)[C@H]2c3cc(C(=O)N4CCCC4)n(CCSCCO)c3C[C@H]2CN1C(=O)c1ccccc1" is greater than or equal to -0.2.
Given back: true (1)

###

Here, each record is paired with measured z-score data.
# Assay Protocol: E. coli acrAB mutant growth effects, primary screen, E. coli filamentation inducers, strain DRC39, OD650, 24 h (AID 1178);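 further: growth measured as culture turbidity by optical density at 650 nm; test concentration not given here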
# Experimental Setup: higher = more signal, called active from +8 up or from −8 down
The answer should be written as a number, with no unit following it.

molecule=CN(C)CCCC[C@@H]1NC(=O)[C@@H]2C[C@H](C(=O)O)[C@H](c3cccc(OCCO)c3)N2C1=O recorded_value=-0.175
molecule=C=C(/C(=C/C[C@@H](OC(C)=O)c1ccc(CO)o1)c1cc(C(=O)OC)ccc1OC)C(C)C recorded_value=0.769
molecule="C=CCC(OC(C)=O)[C@@H]1[C@@H](N(Cc2ccc(-c3cccc(C(F)(F)F)c3)o2)C(=O)c2cccc3ccccc23)c2cc(OCCCO)ccc2N1C(=O)Cc1ccc(OC)cc1 (some centres not stated)" recorded_value=1.11
molecule=NC(=O)NCC#Cc1ccc2c(c1)[C@]1(C(=O)N2)[C@H](C(=O)N2CCN(c3ncccn3)CC2)[C@H]2C(=O)O[C@H](c3ccccc3)[C@H](c3ccccc3)N2[C@@H]1c1ccc(OCCO)cc1 recorded_value=0.436
molecule=COCCCNC(=O)[C@@]1(c2ccc([N+](=O)[O-])cc2)CC(=O)N(C(C)C)[C@@H]1c1ccc(CO)cc1 recorded_value=0.0472

Asked: Return reported z-score. Input molecule: "C=C(CCCC)C(=O)CC[C@@H](OC(=O)c1cccnc1)c1ccc(OCCO)cc1"
Given back: -0.566

Asked: Provide only the value of recorded z-score for COCC1C2CC[C@H]3C(OCc4ccc(OC)cc4)OC[C@]4(C)[C@H]3C2=C(CN4C(=O)OC(C)(C)C)[C@H](C)C1COC (some centres not stated)
Given back: -0.705

###

Items are presented alongside their recorded z-score.
# Assay Protocol: mitochondrial membrane potential change in A549 cells, profiling panel, cell-based, JC-1 fluorescence, basal, 24 h, 100 nL (AID 1138);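 further: A549 lung adenocarcinoma cells under basal conditions with no added stimulus; test concentration not given here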
# Experimental Setup: higher = more signal
In your answer, state the number alone without any accompanying words.

Consider the reported z-score for these compounds:
compound=CC(C)C(=C=CC[C@@H](O)c1cccc(OCCO)c1)C[C@@H](O)COCc1ccccc1 recorded_value=1.6
compound=CCCCNC(=O)c1ccc(C#C[Si](C(C)C)(C(C)C)C(C)C)c(OC(C)=O)c1 recorded_value=-2.05
compound=CO[C@H]1O[C@H](CO)[C@@H](OC(=O)Nc2ccc(C#N)cc2)[C@@H]2OC(=O)[C@H](Cc3cccc(Br)c3)C/C=C/C[C@@H](Cc3cccc(Br)c3)C(=O)O[C@@H]12 recorded_value=1.39
compound=COc1ccc([Si](C)(C)[C@H]2[C@H](CCO)O[C@@]3(C(=O)N(Cc4ccccc4)c4ccc(N5C(=O)c6ccccc6Oc6ccccc65)cc43)[C@@H]2C)cc1 recorded_value=0.616
compound=C[C@]1(C(=O)NCC(F)(F)F)c2ccccc2C(=O)N(Cc2ccccc2)[C@H]1c1ccc(CO)cc1 recorded_value=-0.0626

Asked: Answer with reported z-score of "Cc1ccc([C@H]2C(C(=O)O)=C[C@@H](C(C)(C)C)N2S(=O)(=O)c2ccc(C)cc2)cc1"
Given back: -0.918

Asked: Give reported z-score value for "CC(C)(C)OC(=O)CC[C@]1(C(=O)N2CCCCC2)COC(c2ccc(OCCCO)cc2)=N1"
Given back: -0.29

Asked: Answer with the recorded z-score for the compound listed here: "COc1ccc([Si](C)(C)[C@H]2[C@H](CC(=O)N3Cc4ccccc4C[C@H]3CO)O[C@@]3(C(=O)N(Cc4ccc(N5C(=O)c6cccc7cccc5c67)cc4)c4ccccc43)[C@@H]2C)cc1"
Given back: 1.34

Asked: Give the reported z-score for this compound. CC(C)CCC[C@@H](C)[C@H]1CC[C@@]2(C)C3=C(CC[C@]12C)[C@@]1(C)CC[C@H](OC(=O)c2ccccc2)C(C)(C)C1CC3 (stereo partly drawn)
Given back: 0.442

Asked: For the compound COCC1C2CC[C@H]3C(OCc4ccc(OC)cc4)OC[C@]4(C)[C@H]3C2=C(CN4C(=O)OC(C)(C)C)[C@H](C)C1COC (stereo partly drawn) , report z-score.
Given back: 2.48

Asked: Report z-score for "CCOC(=O)C1=CC[C@@H](c2ccccc2)N(S(=O)(=O)c2ccc(C)cc2)[C@H]1C=Cc1ccccc1"
Given back: 2.17

Asked: # return recorded z-score for input CN1C(=O)C2C=CC(C(O)c3cc(C(F)(F)F)cc(C(F)(F)F)c3)N(NC(=O)OC(C)(C)C)C2C1=O (stereo not drawn)
Given back: 0.717

Asked: Indicate the recorded z-score value for this compound: "COc1ccc([Si](C)(C)[C@@H]2[C@@H](CC(=O)N3Cc4ccccc4C[C@H]3CO)O[C@]3(C(=O)N(Cc4ccc(N5CCC5=O)cc4)c4ccccc43)[C@H]2C)cc1"
Given back: 0.199

Asked: For the compound COC(=O)C1=CC(CCCO)=CC(C)N(Cc2cccc(OC(F)(F)F)c2)C=C1C(=O)OC (stereo not drawn) , give its reported z-score.
Given back: 0.142

Asked: Identify z-score associated with the compound "C=C(C(=O)CC[C@H](OC(=O)c1ccccc1-c1ccccc1C(=O)O)c1ccccc1OCCO)C(C)C"
Given back: 0.743

Asked: # return recorded z-score for entry CC1CC/C=C\[C@H]2OC34C=CCN(C(C)(C)C)C(=O)[C@H]3N(C(CO)C(C)C)C(=O)[C@@H]4C2C(=O)O1 (stereo partly drawn)
Given back: -0.428

Asked: Give the value of z-score reported for the following: "COc1ccc(CCNC(=O)[C@@]2(Cc3ccccc3I)c3ccccc3C(=O)N(Cc3ccccc3Cl)[C@H]2c2ccc(CO)cc2)cc1"
Given back: 0.311

Asked: Give recorded z-score. "C=C(CCCC)C(=O)CC[C@H](OC(=O)c1ccccc1-c1ccccc1C(=O)O)c1ccccc1OCCO"
Given back: 0.58

Asked: Look up and state reported z-score for "COCCCNC(=O)[C@@H]1c2ccccc2C(=O)N(C2Cc3ccccc3C2)[C@H]1c1ccc(CO)cc1"
Given back: 2.76

Asked: Dear colleague, please send me the reported z-score for "CN1C(=O)[C@@]2(Cc3ccccc3)N=C(c3ccc(OCCCO)cc3)O[C@H]2c2ccccc21" when you can.
Given back: 0.558

Asked: # return recorded z-score for entry "C=C(/C(=C/C[C@H](OC(=O)c1ccncc1)c1cccc(OCCO)c1)c1cnc2ccccc2c1)C(C)C"
Given back: 0.945
